# Tested on: Plasmodium berghei
# Measurement description: Screen against P. berghei liver stage (PbLuc), transformed with Luciferase, at 10uM
# Format: functional, HepG2
# Condition notes: tested at 10 uM
Out of some 69,000 compounds screened, about 8,600 (12%) showed an effect of 50% or more. This is one part of a sample in which strong results are shown more often than they occur.

- Molecule: "Cc1n[nH]c(C)c1CN(C)C(C(=O)O)c1c(F)cccc1OC(C)C (stereo unspecified)"
  INHIBITION, %: 40.6
- Molecule: "COc1ccc(C(C(=O)O)N(C)Cc2ccon2)cc1Cl (stereo unspecified)"
  INHIBITION, %: -23.5
- Molecule: "COc1cc(C)cc(OC)c1C(C(=O)O)N(C)Cc1c(C)nn(C)c1C (stereo unspecified)"
  INHIBITION, %: 9.56
- Molecule: "CCOc1ccccc1C(C(=O)O)N(C)Cc1nnc(C)o1 (stereo unspecified)"
  INHIBITION, %: -0.614
- Molecule: "COc1cccc(Cl)c1C(C(=O)O)N(C)Cc1c(C)n[nH]c1C (stereo unspecified)"
  INHIBITION, %: 57.6
- Molecule: "COc1cccc(OC)c1C(C(=O)O)N(C)Cc1c(C)n[nH]c1C (stereo unspecified)"
  INHIBITION, %: 53.3
